Tested on: HepaRG
protocol summary: LDH release cytotoxicity, % of total lysis control; higher = more cytotoxic
conditions: 1 µM; 48 h
List of LDH release cytotoxicity values.
Form entry: value (%) — number only.

{"columns": ["molecule", "LDH release cytotoxicity / %"],
 "data": [
  ["OC[C@@H](O)[C@@H](O)[C@H](O)[C@H](O)CO", -2.73],
  ["CS(=O)(=O)OCCCCOS(C)(=O)=O", -2.08],
  ["O=C1CN(N=Cc2ccc([N+](=O)[O-])o2)C(=O)N1", -0.456],
  ["[Cl][Hg][Cl] [Mercuric chloride]", -0.378],
  ["Cc1ccccc1Cl", -1.84]
]}

// next entry
May I ask what LDH release cytotoxicity has been recorded for `CCN1CCC2(CC1)COc1cc3c(cc12)N(C(=O)c1ccc(-c2ccc(-c4nnc(C)o4)cc2C)cc1)CC3` ?
-3.08
